assay.text: yeast display, Sf9 membrane polyspecificity reagent, FACS + sequencing; frameworks hold sequencing errors
measured.property: polyreactivity (PSR sort gate)

[[record]]
sequence_code = "QVQLVESGGGLVQAGGSLRLSLAASGSIFSYYAMGWYRQAPWKERELVAAISYSGSDTYYADSVKGRFTISRDNAKNTVYLQMNSLNPEDTAVYYCAAEDPSYSYDYWGQGTQVTVSS"
measured = "low polyreactivity"

[[record]]
sequence_code = "QVQLVESRGGLVQAGGSVRLSFAASGRILKYNAMGWYRQAPGKERELVAAISYRGGSTYYADSVKGRFTISRDNAKNTVYLQMNSLKPEDTAVYYCAALTESTSYGYWGQGTQVTVSS"
measured = "low polyreactivity"

[[record]]
sequence_code = "QVQLVESGGGLVQAGGSLRLSCAASGLIFYGNAMGWYRQAPGKERELVADITGSSVRTYYADSVKGRFTISRDNAKNTDYLQMNSLKPEDTAVYYCAATYGYLYTGLSRYDYWGQGTQVTVSS"
measured = "low polyreactivity"

[[record]]
sequence_code = "QVQLVESGGGLVQAGGSLRLSCAASGITFDYYAMGWYRQAPRKERELVAAITGGGSTNYADSVKGRFTISRDNAKNTVYLQMNSLIPEDTAVYFCNALTRYRYQYGYLGGTGYNYWGHGTQVTVSS"
measured = "low polyreactivity"


* * *

assay.text: yeast display, Sf9 membrane polyspecificity reagent, FACS + sequencing; frameworks hold sequencing errors
measured.property: polyreactivity (PSR sort gate)

[[record]]
sequence_code = "QVQLHESGGGLVQAGGSLRLSCAASGTISYAGPMGWYRQAPGKEREFVAAIGVGSNTNYADSVKGRYTIIRDNAKNTVYLQMNSLKPEDTAVYYCAVGGYAPLGRPYWCQGTQVTVSS"
measured_property = "polyreactivity (PSR sort gate)"
measured = "low polyreactivity"

[[record]]
sequence_code = "QVQLVESGGGLVQAGGSLRLSCAASGSIFQYTMGWYRQAPGKERELVAAITRSGSSTYYADSVKGRFTISRDNAKNTVYLQMNSLKPEDTAVYSCAHTIRRVLGYGSWGQGTQVTVSS"
measured_property = "polyreactivity (PSR sort gate)"
measured = "high polyreactivity"

[[record]]
sequence_code = "HVQLVESAGGLFQEGGSLRVSCAASGGTLNTYAMGRYRQAPGKDREFVSAITTSGASTYYADSVKGRFTISRDNAKNTVYLQMNSLKPEDSAVYYCYCDYWGQGTQVTVSS"
measured_property = "polyreactivity (PSR sort gate)"
measured = "low polyreactivity"

[[record]]
sequence_code = "QVQLVESGGGLVQAGGSLRLSCAASGLIFGYNAMGWYRQAPGKERELVAAISSSGGSTSYADSVKGRFTISRDNAKNTVYLQMNSLKPEDTAVYYCAAKPGRYADYDYNSWGQGTQVTVSS"
measured_property = "polyreactivity (PSR sort gate)"
measured = "low polyreactivity"

[[record]]
sequence_code = "QVQLVDSGGGLVQAGGILRLSSPASGSTFKYYTMGRSRQAPGKEREWVAGITLSGPTTYYADSVKGRFTISRDNAKNTVYLQMNSLKPEDTAVYYCAADYYHDFNAYYYWGQGTQVTVSS"
measured_property = "polyreactivity (PSR sort gate)"
measured = "low polyreactivity"

[[record]]
sequence_code = "QVQLVESGGGLVQAGGSLRLSCAASGFTVGLYAMGWYRQAPGKERELVAAISGGGSTNYADSVKGRFTISRDNAKNTVYLQMNSLKPEDTAVYYCNKAYHNVYYNWYLRYYSYDYWGQGTQVTGSS"
measured_property = "polyreactivity (PSR sort gate)"
measured = "low polyreactivity"

[[record]]
sequence_code = "QVQLVESGGGLVQAGGSLRLSCAASGSTFPKYAMGWYRQAPGKERELVASISVTTGSTYYADSVKGRFTISRDNAKNTVYLQMNSLKPEDTAVYYCAVGRTVAHRFIAGDYWGQGTQVTVSS"
measured_property = "polyreactivity (PSR sort gate)"
measured = "high polyreactivity"

[[record]]
sequence_code = "QVHLVESGGGLVQAGGSLRLSCAASGKIFRSYMGWYRQAPGKERELVASISRRGGSTYYADSEKGRFTISRDNAKNTVTLQMISLKPEDTAVYYCANVVNYPSARYCYWGQGTQVTVSS"
measured_property = "polyreactivity (PSR sort gate)"
measured = "high polyreactivity"

[[record]]
sequence_code = "QVQLVESGGGLVQAGGSLRLSCAASGSTFAYNAMGWYRQAPGKERELVASISWTGGSTYYADSVKGRFTISRDNAKNTVYLQMNSLKPEDTAVYYCAVDWLEGYEFDSWGQGTQVTVSS"
measured_property = "polyreactivity (PSR sort gate)"
measured = "low polyreactivity"

[[record]]
sequence_code = "QVQLEESGGGLVQAGGSLRLSCAASGSTFHLYAMGLYRQAPGKEREFVAAIRGRGGNTYADSVKGRFTISRDNAKNTVYLQMNSLKPEDTAVYYCAAPLLRDLRSQYYYIYWGQCTQVTVSS"
measured_property = "polyreactivity (PSR sort gate)"
measured = "low polyreactivity"

[[record]]
sequence_code = "QVQLVESGGGLVQAGGSLRLSCAASGYTFPLYAMGWYTQAPGKERELVADINIGGASTYYADSVKGRFTISRDNAKNTVYLQMNSLKPEDTAVYDCAKEYYDGYFPTFEYDYWGQGTQVTVSS"
measured_property = "polyreactivity (PSR sort gate)"
measured = "low polyreactivity"


* * *

assay.text: yeast display, Sf9 membrane polyspecificity reagent, FACS + sequencing; frameworks hold sequencing errors
measured.property: polyreactivity (PSR sort gate)

[[record]]
sequence_code = "QVQLVESGGGLVQAGGSLRLSCAASGITFYRYAMGWYRQAPGTEREVVATITSGGSTYYADSVKGRFTISRDNAKNTVYLQMNSLKPEDTAVYYCAAESVWTWYYTTAGMDYWGQGTQVTVSS"
measured_property = "polyreactivity (PSR sort gate)"
measured = "high polyreactivity"

[[record]]
sequence_code = "QVQLVESGGGLVQAGGSLRLSCAASGITFLTYAMGWYRQSPGKDRELVASITYSGGTTYYADSVKGRFTISRDNAKNTVYLQMNSLQPEDTAVYYCNTDWRTSVGYDYWGQGTQVTVSS"
measured_property = "polyreactivity (PSR sort gate)"
measured = "low polyreactivity"

[[record]]
sequence_code = "QVQLVESGGGLVQAGGSLRLSCAASGRIFPLYAMGWYRQAPGKERELDAAISKRDGSTSYADSVKGRFTISRDNAKNTVYLQMNSLKPVDTAVYYCNARNHVQVLFRRDYWGQGTQVTVSS"
measured_property = "polyreactivity (PSR sort gate)"
measured = "low polyreactivity"

[[record]]
sequence_code = "QVQLQESGDGLVQALGSLRLSCAASGYISGYYYMGWYRQAPGKERELVAGIDAFGSSTNYADCVKGRFTISRDNAKNTVYLQMNSPKPVDTAVYYCAAEYDDWDYHWYWGEGTQVTVSS"
measured_property = "polyreactivity (PSR sort gate)"
measured = "low polyreactivity"

[[record]]
sequence_code = "QVQLVESGGGLVQAGGSLRLSCAASGLIRDGKVMGWYIQAPGKERELVAAINTSGGSTYYADSVKGRFTISRDNAKNTVYLQMNSLKPEDTAVYYCAARYPSDYDYWGQGTQVTVSS"
measured_property = "polyreactivity (PSR sort gate)"
measured = "low polyreactivity"

[[record]]
sequence_code = "QVQLVESGGGLVQAGGSLRLSCAASGSIFPINARGWYREAPGKERELVAVITSGGGGTYYADSVKGRFTISRDNAKNTVYLQMNCLTPEDTAVYYCAKRLSRKWQKFGYWGQGTQVTVSS"
measured_property = "polyreactivity (PSR sort gate)"
measured = "low polyreactivity"

[[record]]
sequence_code = "QVQLVESGGGLDQAGGSLRLSCSASGITFKSYAMGWYTQSPGKEREVVAAISRRGGSTYYADSVKGRFTISRDNAKNTVYLQMNSLKQEDTAVYFFAADSGREPKGPSRLTYWGQGTQVTVSS"
measured_property = "polyreactivity (PSR sort gate)"
measured = "high polyreactivity"

[[record]]
sequence_code = "QDPLVESGGGLVQAGGSLRLSCAASGRLFYRNPMGWYRQAPGKERELVAAISSSGGGTYADSVKGRFTISRDNAKNTVYLQMNSLKPEDTAVYYCAAGPFSYSHYGRKFYYWGQGTQVTVSS"
measured_property = "polyreactivity (PSR sort gate)"
measured = "high polyreactivity"

[[record]]
sequence_code = "QGQLVESGGGLVQAGGRLRLSCAASGFTFRHNAMGWYRQAPGKETELVAAISWSDGSTYADSVKGRFTISRDNAKNTVYLQMNSLKPEDTAVYYCNADYPSYRYFTGRDYWGQGTQVTVSS"
measured_property = "polyreactivity (PSR sort gate)"
measured = "low polyreactivity"

[[record]]
sequence_code = "QVQLVESGGGLLQAGGSLRLSCAASGRTFYSNAMGWYRQAPGKERELVATISSGGSTNYADSVKGRFTISRDNAKNTVYLQMNSLKPEDTAVYYCAKRTHQFGVSRSYNTYYYWGQGTQVTVSS"
measured_property = "polyreactivity (PSR sort gate)"
measured = "low polyreactivity"

[[record]]
sequence_code = "QVQLVKSGGGLVQAGGSLRLSCAASGRIFVGYVMGWYRQAPGKERELVAAIDSGGRTNYADSVKGRFTISRDNAKNTVYLQMNSLKPEDTAVYYCNREAAHGSLRWTEMEYWGQGTQVTVSS"
measured_property = "polyreactivity (PSR sort gate)"
measured = "low polyreactivity"

